# credit: the supplement of paper PMC10724198

Test system: Saccharomyces cerevisiae
experiment.notes: protein stability index of tFT-peptide fusion (C-terminal peptide) (PSI (0-1 scale)); higher = more stable (slower turnover)
run.parameters: genetic background: das1 deletion; temperature: 30 C
value.type: protein stability index
Please respond with just the number, no unit label.

Take a look at these entries with their results.
{"biopolymer.sequence": "TQSPADFSSQNH [NHX1 C-terminal 12 aa]", "protein stability index": 0.74}
{"biopolymer.sequence": "RTQGEGQGSMFR [TAF11 C-terminal 12 aa]", "protein stability index": 0.723}
{"biopolymer.sequence": "KQEQESLGSNSK [DAD3 C-terminal 12 aa]", "protein stability index": 0.666}
{"biopolymer.sequence": "AEFFTKFDELVV [EHT1 C-terminal 12 aa]", "protein stability index": 0.662}

## Task Quick one: protein stability index for LKLEQKIGELSK [CRN1 C-terminal 12 aa] ?
## Result 0.679

## Task Quick one: protein stability index for HATTVIDGKIKV [YHI9 C-terminal 12 aa] ?
## Result 0.693

## Task Quick one: protein stability index for SRLKKEFEAAAL [IDP2 C-terminal 12 aa] ?
## Result 0.676

## Task Quick one: protein stability index for NFKNSSAKSKRS [PKH2 C-terminal 12 aa] ?
## Result 0.682

## Task Quick one: protein stability index for VATYLREHEYDQ [AAP1 C-terminal 12 aa] ?
## Result 0.685

## Task Quick one: protein stability index for MIDELDYNINFA [UGA3 C-terminal 12 aa] ?
## Result 0.7

## Task Quick one: protein stability index for LLRNGDIDTITK [COG3 C-terminal 12 aa] ?
## Result 0.704

## Task Quick one: protein stability index for GKLLVPLVLYQI [YDR182W-A C-terminal 12 aa] ?
## Result 0.673

* * *

Listing: protein stability index of selected sequences
Test system: Saccharomyces cerevisiae
experiment.notes: protein stability index of tFT-peptide fusion (C-terminal peptide) (PSI (0-1 scale)); higher = more stable (slower turnover)
run.parameters: genetic background: doa10 deletion; temperature: 30 C
Please respond with just the number, no unit label.

Take a look at these entries with their results.
{"biopolymer.sequence": "WQGWFLSLCIWV", "assay.value": 0.317}
{"biopolymer.sequence": "EGLCCGAYFLVF", "assay.value": 0.558}
{"biopolymer.sequence": "FSCLCLCVATSG", "assay.value": 0.237}

## Task // lookup protein stability index | system=Saccharomyces cerevisiae | key= YKLRAVFVCSVT
## Result 0.311

## Task // lookup protein stability index | system=Saccharomyces cerevisiae | key= MALAVRVVICGA
## Result 0.103

## Task // lookup protein stability index | system=Saccharomyces cerevisiae | key= GNRDLVNTSVEG
## Result 0.633

## Task // lookup protein stability index | system=Saccharomyces cerevisiae | key= GLSVLLTCIHFV
## Result 0.164

## Task // lookup protein stability index | system=Saccharomyces cerevisiae | key= VLVVLRSEVSLS
## Result 0.195

## Task // lookup protein stability index | system=Saccharomyces cerevisiae | key= MALAVRVVFCGA
## Result 0.227

## Task // lookup protein stability index | system=Saccharomyces cerevisiae | key= RVLVEIVYFKVF
## Result 0.037

* * *

System: Saccharomyces cerevisiae
experiment.notes: protein stability index of tFT-peptide fusion (C-terminal peptide) (PSI (0-1 scale)); higher = more stable (slower turnover)
run.parameters: genetic background: das1 deletion; temperature: 30 C
value.type: protein stability index
Please respond with just the number, no unit label.

Take a look at these entries with their results.
{"biopolymer.sequence": "LKQIEMISGFSL [ADF1 C-terminal 12 aa]", "protein stability index": 0.707}
{"biopolymer.sequence": "IAFPQRKYAIKA [RPL35A C-terminal 12 aa]", "protein stability index": 0.299}
{"biopolymer.sequence": "NNLHLPGNTGFF [PDC2 C-terminal 12 aa]", "protein stability index": 0.728}
{"biopolymer.sequence": "LMLGVAYYLLNE [CYB5 C-terminal 12 aa]", "protein stability index": 0.624}

## Task Quick one: protein stability index for FTRRGWSSFFKQ [PCL9 C-terminal 12 aa] ?
## Result 0.684

## Task Quick one: protein stability index for VHCGCRGCASTD [BUD31 C-terminal 12 aa] ?
## Result 0.669

## Task Quick one: protein stability index for SKEKARALGSNF [GTT1 C-terminal 12 aa] ?
## Result 0.712

## Task Quick one: protein stability index for THTHHNPNPTLF [YNL338W C-terminal 12 aa] ?
## Result 0.707

## Task Quick one: protein stability index for TTRYAKEMNIIS [HIR2 C-terminal 12 aa] ?
## Result 0.694

## Task Quick one: protein stability index for ITSQDILASTDY [YHL009W-B C-terminal 12 aa] ?
## Result 0.688

## Task Quick one: protein stability index for QCNFSYLESNYF [CTS1 C-terminal 12 aa] ?
## Result 0.689

## Task Quick one: protein stability index for IKARNMKIDRTQ [COG4 C-terminal 12 aa] ?
## Result 0.681

## Task Quick one: protein stability index for HKKEVVSKGDDY [MAP2 C-terminal 12 aa] ?
## Result 0.669

## Task Quick one: protein stability index for KISLLSHAQCYK [YIR016W C-terminal 12 aa] ?
## Result 0.668

## Task Quick one: protein stability index for LLCRDSSREVGE [YBL113C C-terminal 12 aa] ?
## Result 0.702

## Task Quick one: protein stability index for SVTFFIQDILCL [YPL073C C-terminal 12 aa] ?
## Result 0.389

## Task Quick one: protein stability index for QRASSRPKERRK [MSB4 C-terminal 12 aa] ?
## Result 0.711

## Task Quick one: protein stability index for SSGADNSASSNQ [PAM16 C-terminal 12 aa] ?
## Result 0.684

## Task Quick one: protein stability index for FGICAIHWGIKV [COQ5 C-terminal 12 aa] ?
## Result 0.385

## Task Quick one: protein stability index for FCISFPCFGLSI [AIM26 C-terminal 12 aa] ?
## Result 0.679

* * *

Tested on: Saccharomyces cerevisiae
experiment.notes: protein stability index of tFT-peptide fusion (C-terminal peptide) (PSI (0-1 scale)); higher = more stable (slower turnover)
run.parameters: genetic background: wild type; temperature: 30 C
value.type: protein stability index
Please respond with just the number, no unit label.

Take a look at these entries with their results.
{"biopolymer.sequence": "AFLFLFSITCIV", "value.type": "protein stability index", "assay.value": 0.19}
{"biopolymer.sequence": "LFVGLVSFRIGA", "value.type": "protein stability index", "assay.value": 0.419}
{"biopolymer.sequence": "AIDLCIAVVGMV", "value.type": "protein stability index", "assay.value": 0.342}
{"biopolymer.sequence": "RVFLVLFLILSG", "value.type": "protein stability index", "assay.value": 0.286}
{"biopolymer.sequence": "IGFSPSFQLYSA", "value.type": "protein stability index", "assay.value": 0.67}

## Task Quick one: protein stability index for LCSVVIFCLVWG ?
## Result 0.182

## Task Quick one: protein stability index for FLVVSSVGFPLL ?
## Result 0.628

## Task Quick one: protein stability index for SVECLCLFVACR ?
## Result 0.184

## Task Quick one: protein stability index for FVGVLVLCVCRC ?
## Result 0.155

## Task Quick one: protein stability index for RLLFFVFLSSRF ?
## Result 0.329

## Task Quick one: protein stability index for AFPVGFLVGLVV ?
## Result 0.348

## Task Quick one: protein stability index for LFGFYFVRCLVW ?
## Result 0.159

* * *

Test system: Saccharomyces cerevisiae
experiment.notes: protein stability index of tFT-peptide fusion (C-terminal peptide) (PSI (0-1 scale)); higher = more stable (slower turnover)
run.parameters: genetic background: wild type; temperature: 30 C
Listing: protein stability index of selected sequences
Please respond with just the number, no unit label.

Take a look at these entries with their results.
{"biopolymer.sequence": "CAWRSVRLLIAH", "protein stability index": 0.506}
{"biopolymer.sequence": "PPPKAPHSSPNL", "protein stability index": 0.675}

## Task Quick one: protein stability index for GLNKGKYIKLYT ?
## Result 0.558

## Task Quick one: protein stability index for VCSPLLIYSVGV ?
## Result 0.624

## Task Quick one: protein stability index for SVSEIGYEIRSL ?
## Result 0.739

* * *

Listing: protein stability index of selected sequences
System: Saccharomyces cerevisiae
experiment.notes: protein stability index of tFT-peptide fusion (C-terminal peptide) (PSI (0-1 scale)); higher = more stable (slower turnover)
run.parameters: genetic background: wild type; temperature: 30 C
Please respond with just the number, no unit label.

Take a look at these entries with their results.
{"biopolymer.sequence": "NNLHLPGNTGFF [PDC2 C-terminal 12 aa]", "assay.value": 0.712}
{"biopolymer.sequence": "FAQDLMKCTYKI [NUP145 C-terminal 12 aa]", "assay.value": 0.656}
{"biopolymer.sequence": "LMFSKLGRYLFN [NSG1 C-terminal 12 aa]", "assay.value": 0.655}
{"biopolymer.sequence": "IVPLSELEKTLI [XKS1 C-terminal 12 aa]", "assay.value": 0.687}
{"biopolymer.sequence": "AQPSQSEKEKTK [LNP1 C-terminal 12 aa]", "assay.value": 0.678}
{"biopolymer.sequence": "KKLNRKIASIFN [ZEO1 C-terminal 12 aa]", "assay.value": 0.664}

## Task Quick one: protein stability index for NNDILQNKKLHQ [KIP1 C-terminal 12 aa] ?
## Result 0.712

## Task Quick one: protein stability index for AYIDTSIPNLLL [REG2 C-terminal 12 aa] ?
## Result 0.707

## Task Quick one: protein stability index for FVDGIANSKKST [SRB7 C-terminal 12 aa] ?
## Result 0.682

## Task Quick one: protein stability index for WKKDNKIQVVKN [GIM4 C-terminal 12 aa] ?
## Result 0.663

## Task Quick one: protein stability index for GKKGQHVGCCVC [YFL066C C-terminal 12 aa] ?
## Result 0.691

## Task Quick one: protein stability index for AITLAWLAHALT [YHL037C C-terminal 12 aa] ?
## Result 0.39

## Task Quick one: protein stability index for HGRESANGISKQ [YLR374C C-terminal 12 aa] ?
## Result 0.655

## Task Quick one: protein stability index for LILQRLKTSLKI [GFD1 C-terminal 12 aa] ?
## Result 0.668

## Task Quick one: protein stability index for IVALILNTRGSE [VMA11 C-terminal 12 aa] ?
## Result 0.668

## Task Quick one: protein stability index for KIITLDLSNYAE [SMC1 C-terminal 12 aa] ?
## Result 0.672

## Task Quick one: protein stability index for EHYSDGDVCIII [DAL3 C-terminal 12 aa] ?
## Result 0.68

## Task Quick one: protein stability index for KRGEIYETGKFF [OLE1 C-terminal 12 aa] ?
## Result 0.723

## Task Quick one: protein stability index for KLAEHGAKKQKI [GCD10 C-terminal 12 aa] ?
## Result 0.659

## Task Quick one: protein stability index for KRAELASKYIYS [COG8 C-terminal 12 aa] ?
## Result 0.692

## Task Quick one: protein stability index for PEKWSASLKKFK [THI6 C-terminal 12 aa] ?
## Result 0.685
